target: CHO-XBP1 luciferase reporter, IRE1-XBP1 UPR activation; test: XBP1 luciferase reporter activation – CHO-XBP1 cells, luminescence, counter-screen for apoptotic UPR arm activators, dose response (AID 489040);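 also: reporter read after six hours of compound exposure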
Active and inactive are the calls of the source.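 The calls were made as follows: active = mean half-maximal activating concentration from the dose-response fit at or below a set limit; inactive = the rest.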
outcome measure: EC50

# entry smiles, measurement target, outcome measure, reported result
records = [
    ("O=C(/C=C\\c1ccccc1OC(=O)c1ccccc1F)c1cc2ccccc2o1", "CHO-XBP1 luciferase reporter, IRE1-XBP1 UPR activation", "EC50", "13.7 µM"),
    ("COc1cc2nc(NC(=O)c3ccc(Cl)cc3)sc(=O)c2cc1OC", "CHO-XBP1 luciferase reporter, IRE1-XBP1 UPR activation", "EC50", "> 80 µM (inactive)"),
    ("O=C(CSc1cccc2cccnc12)N/N=C/c1cccnc1", "CHO-XBP1 luciferase reporter, IRE1-XBP1 UPR activation", "EC50", "> 80 µM (inactive)"),
    ("CCOC(=O)Cc1csc(/N=C/c2c(O)n(-c3ccc(C)c(C)c3)c(=O)c3ccccc23)n1", "CHO-XBP1 luciferase reporter, IRE1-XBP1 UPR activation", "EC50", "18.3 µM"),
    ("S=C1SCN(CCN2CCOCC2)CN1Cc1ccccc1", "CHO-XBP1 luciferase reporter, IRE1-XBP1 UPR activation", "EC50", "> 80 µM (inactive)"),
    ("COc1cc(C(=O)Sc2ccc(Cl)cc2)cc(OC)c1OC", "CHO-XBP1 luciferase reporter, IRE1-XBP1 UPR activation", "EC50", "> 80 µM (inactive)"),
    ("O=C(Nc1cccc(S(=O)(=O)N2CCCCC2)c1)c1ccc([N+](=O)[O-])o1", "CHO-XBP1 luciferase reporter, IRE1-XBP1 UPR activation", "EC50", "> 80 µM (inactive)"),
]
